Biological target: human GLP-1 receptor (human, UniProt P43220 24-463)
Test: cell-based or functional assay
Numbered stars: 1 amine (or outer) side, 2 acyl side, 3 side chain; on linkers, the order of the positions; unused ones are H or OH. Square brackets hold non-standard residues; d marks the D form. Side chains are listed from the residue outwards. Ends that are not written are not given here. γGlu = O=C(O)[C@H](CCC(=O)[*:2])N[*:1]; X70 = not defined here; Aib = CC(C)(N)C(=O)O
parameter: EC50 hGLP-1R (cAMP)
# output: number + unit

# binder, experimental.value
measured = [
    ("HXQGTFTSDLSKQKESRRAQLFIEWLKAGGPSSGAPPPS (dSer at 2; K(γE-x53) at 14; C-terminal NH2) [SEQ ID NO: 68]", "7.9 pM"),
]

Input line: Entry under review: HXQGTFTSDLSKQKDSRRAQDFIEWLKRGGPSSGAPPPS (dSer at 2; K(γE-x53) at 14; C-terminal NH2) [SEQ ID NO: 125] . Reported EC50 hGLP-1R (cAMP)?
Output line: 31.4 pM

Input line: Next binder up: HXQGTFTSDLSKQKDEQAAKLFIEWLKAXGPSSGAPPPS (Aib at 2; K(γE-x76) at 14; dAla at 29; C-terminal NH2) [SEQ ID NO: 201]
Output line: 22.7 pM

Input line: Try H[Aib]QGTFTSDLSKQK([γGlu-X70])DEEAARLFIEWLKAGGPSSGAPPPS-NH2 (reading uncertain) [SEQ ID NO: 214] next.
Output line: 4.2 pM

Input line: Also, HXQGTFTSDLSKQXESRRAQDFIEWLKAGGPSSGAPPPS (dSer at 2; Orn(γE-x53) at 14; C-terminal NH2) [SEQ ID NO: 71] please.
Output line: 20.5 pM

Input line: Likewise for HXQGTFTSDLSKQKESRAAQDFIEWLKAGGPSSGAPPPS (dSer at 2; K(γE-x76) at 14; C-terminal NH2) [SEQ ID NO: 59] ?
Output line: 7.9 pM

Input line: What do we get for HXQGTFTSDLSKQKDSRRAQDFIEWLKNXGPSSGAPPPS (dSer at 2; K(γE-x53) at 14; dAla at 29; C-terminal NH2) [SEQ ID NO: 94] ?
Output line: 5.2 pM

Input line: One more binder: HXQGTFTSDLSKQKESRAAQLFIEWLKAGGPSSGAPPPS (dSer at 2; K(γE-x70) at 14; C-terminal NH2) [SEQ ID NO: 45]
Output line: 7.5 pM
